Quick reference: optical density of the listed items.
# Experimental System: T1, human ACVR2A (human, UniProt P27037 20-135, limits assumed); also: test concentration or dose not given here
# T1 construct: coated antigen of the initial ELISA; also called activin receptor, type II A
# T1 sequence (P27037 20-135 limits assumed): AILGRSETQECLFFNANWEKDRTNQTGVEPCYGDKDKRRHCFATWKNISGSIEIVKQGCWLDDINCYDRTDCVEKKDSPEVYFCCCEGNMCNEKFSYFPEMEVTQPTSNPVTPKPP
# Assay Explanation: ELISA
A number alone suffices; assume OD.

Binder	Property	Measurement Units	Value Measured
374_D03 (antibody, V domains shown, Group III) VH: EVQLLESGGGLVQPGGSLRLSCAASGFTFDSYSMNWVRQAPGKGLEWVAGINYNGGYKSYADSVKGRFTISRDNSKNTLYLQMNSLRAEDTAVYYCARGANWHDTHLDYWGQGTLVTVSS VL: DIQMTQSPSSLSASVGDRVTITCRASQSIVTYLNWYQQKPGKAPKLLIYAATSRASGVPSRFSGSGSGTDFTLTISSLQPEDFATYYCQQSYDTPLTFGGGTKVEIK	optical density	OD	3.3

Then this binder:
[ask] Field request: optical density | item: 376_E02 (antibody, V domains shown, Group III) VH: EVQLLESGGGLVQPGGSLRLSCAASGFTFSSYSMNWVRQAPGKGLEWVAGINYNGGYKGYADSVKGRFTISRDNSKNTLYLQMNSLRAEDTAVYYCARGANWHDTALDYWGQGTLVTVSS VL: DIQMTQSPSSLSASVGDRVTITCRASQSILSYVNWYQQKPGKAPKLVIYAATSRHSGVPSRFSGSGSGTDFTLTISSLQPEDFATYYCQQSDNTPLTFGGGTKVEIK
[reply] 3.3
